- MEASURED_TARGET: hGLP-1R (Homo sapiens)
- Sequence (P43220 24-463): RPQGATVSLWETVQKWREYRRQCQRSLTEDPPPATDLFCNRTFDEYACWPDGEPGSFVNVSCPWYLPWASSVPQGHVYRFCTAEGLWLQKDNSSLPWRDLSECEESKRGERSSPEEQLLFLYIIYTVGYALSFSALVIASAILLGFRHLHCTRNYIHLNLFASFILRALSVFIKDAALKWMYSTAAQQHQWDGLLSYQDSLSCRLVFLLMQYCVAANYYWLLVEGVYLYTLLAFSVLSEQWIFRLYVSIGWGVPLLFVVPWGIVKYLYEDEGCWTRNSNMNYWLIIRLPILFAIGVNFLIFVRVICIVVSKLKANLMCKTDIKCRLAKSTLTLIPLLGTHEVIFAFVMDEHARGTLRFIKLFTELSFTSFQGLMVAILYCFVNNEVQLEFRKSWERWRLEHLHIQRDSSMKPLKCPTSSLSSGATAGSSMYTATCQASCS
- PROCEDURE_SUMMARY: Functional cAMP activity in the presence of 1% HSA
- Type: cell-based
- CONDITIONS: read-out: cAMP Rel EC50, hGLP-1R
Starred links: 1 amine or outer side, 2 acyl side, 3 side chain; linkers in the order of their positions; H or OH if unused. Non-standard residues stand in square brackets, D forms with d. Groups on a side chain read outwards from the residue. *: point of attachment. C18 diacid = O=C(O)CCCCCCCCCCCCCCCCC(=O)*; γGlu = O=C(O)[C@H](CCC(=O)[*:2])N[*:1]; αMe4Pal = C[C@](N)(Cc1ccncc1)C(=O)O; αMeY = C[C@](N)(Cc1ccc(O)cc1)C(=O)O; 4Pal = N[C@@H](Cc1ccncc1)C(=O)O; αMeL = CC(C)C[C@](C)(N)C(=O)O; Orn = NCCC[C@H](N)C(=O)O; AEEA = NCCOCCOCC(=O)O; Aib = CC(C)(N)C(=O)O
OBSERVABLE: EC50 (nM)
Answer with a number only, understood to be in nM.

The following substances have reported results that may help.
H-Y[Aib]QGTFTSDFS[Orn][αMeL]LDKK([AEEA-γGlu-C18 diacid])AQ[Aib]AFIEWLLEGGPSSGAPPPSGS-NH2 [Example 168] ... 281
H-Y[Aib]QGTFTSDFS[Orn][αMeL]LDKK([AEEA-γGlu-C18 diacid])AQ[Aib]AFIEYLLAGGPSSGAPPPSGE-NH2 [Example 86] ... 421

# H-Y[Aib]QGTFTSD[4Pal]SQ[αMeL]LD[Orn]K([AEEA-γGlu-C18 diacid])AQ[αMe4Pal]AFIE[αMeY]LIA[Aib]GPSSGEPPPSGSEE-NH2 [Example 1099] with hGLP-1R (Homo sapiens): EC50 is 75.8
